The values you see were collected from patent US20060154243A1.

Tested on: serum 1a (individual 1, early serum)
Assay type: binding, human
# label = 1 if Binding of serum 1a to linear peptides of Orf14 of SARS-CoV TOR2 < 0.5 else 0

VKPLLAPHHVVAVIQ | 0
TQREAEAAVKPLLAP | 1

Request: Determine whether this sequence shows Binding of serum 1a to linear peptides of Orf14 of SARS-CoV TOR2 lower than 0.5 (ties excluded): "NFLKEQHCQKASTQR"
Result: 1

Request: Determine whether this sequence shows Binding of serum 1a to linear peptides of Orf14 of SARS-CoV TOR2 lower than 0.5 (ties excluded): "AVIQEIQLLAAVGEI"
Result: 0

Request: Determine whether this sequence shows Binding of serum 1a to linear peptides of Orf14 of SARS-CoV TOR2 lower than 0.5 (ties excluded): "AEAAVKPLLAPHHVV"
Result: 0

Request: Determine whether this sequence shows Binding of serum 1a to linear peptides of Orf14 of SARS-CoV TOR2 lower than 0.5 (ties excluded): "HCQKASTQREAEAAV"
Result: 0

Request: Determine whether this sequence shows Binding of serum 1a to linear peptides of Orf14 of SARS-CoV TOR2 lower than 0.5 (ties excluded): "FLKEQHCQKASTQRE"
Result: 1

---

# Control Serum Blood-Bank Looped peptides per record follows
System: control serum Blood-bank (commercial negative donor pooled serum)
Assay type: binding, human

Example cases with answers are listed next.
AAVKPLLAPHHVVAV | 0.6
VGEILLLEWLAEVVK | 0.7
AFLLFLVLIMLIIFW | 0.8
NFLKEQHCQKASTQR | 0.6

Please examine the following record next.
Request: Tell me its Control Serum Blood-Bank Looped peptides given "TQREAEAAVKPLLAP" as the entry.
Result: 0.8

---

# Control serum Blood-bank linear peptides per record follows
System: control serum Blood-bank (commercial negative donor pooled serum)
Format: binding, human
Enter the number alone.

Example cases with answers are listed next.
LAFLLFLVLIMLIIF | 0.6
NELTLIDFYLCFLAF | 0.6

Request: Tell me its Control serum Blood-bank linear peptides given "ELTLIDFYLCFLAFL" as the entry.
Result: 0.7

Request: Tell me its Control serum Blood-bank linear peptides given "IQEIQLLAAVGEILL" as the entry.
Result: 0.4

Request: Tell me its Control serum Blood-bank linear peptides given "TLIDFYLCFLAFLLF" as the entry.
Result: 0.7

Request: Tell me its Control serum Blood-bank linear peptides given "LLEWLAEVVKLPSRY" as the entry.
Result: 0.5

Request: Tell me its Control serum Blood-bank linear peptides given "AAVGEILLLEWLAEV" as the entry.
Result: 0.4

---

Test system: serum London
Assay type: binding, human
Range-based classes on measured Binding of serum London to linear peptides of Orf14 of SARS-CoV TOR2: low value (below 0.4), medium value (0.4 to below 0.6), high value (0.6 or more)

Solved entries (count: 5):
KASTQREAEAAVKPL | low value
CQKASTQREAEAAVK | low value
FLKEQHCQKASTQRE | low value
ILLLEWLAEVVKLPS | medium value
IQEIQLLAAVGEILL | low value

Request: Category of "PPCYNFLKEQHCQKA" , please.
Result: low value

Request: Category of "EQHCQKASTQREAEA" , please.
Result: medium value

Request: Category of "AVIQEIQLLAAVGEI" , please.
Result: high value

Request: Category of "APHHVVAVIQEIQLL" , please.
Result: low value

Request: Category of "AEAAVKPLLAPHHVV" , please.
Result: high value

Request: Category of "EWLAEVVKLPSRYCC" , please.
Result: high value

Request: Category of "PHHVVAVIQEIQLLA" , please.
Result: low value

Request: Category of "LEWLAEVVKLPSRYC" , please.
Result: medium value

Request: Category of "KEQHCQKASTQREAE" , please.
Result: low value

Request: Category of "LPPCYNFLKEQHCQK" , please.
Result: low value

Request: Category of "HCQKASTQREAEAAV" , please.
Result: high value

Request: Category of "CYNFLKEQHCQKAST" , please.
Result: high value

Request: Category of "QHCQKASTQREAEAA" , please.
Result: medium value
